Origin of the recorded values: patent US20250281462A1

experiment: Phase 1 multiple dose trial, plasma pharmacokinetics (Part 2); conditions: male, human, in vivo, 90 mg, Tmax, human plasma; Regimen J: 90 mg TQS-168 SDD QD 7 days, fed; Day 7; median

molecule: CC(C)(C)c1ccc(-c2nc3ccccc3[nH]2)cc1 [TQS-168, 2-(4-tert-butylphenyl)-1H-benzimidazole]
Tmax / h: 3

* * *

assay: clinical; settings: male, human, in vivo, po, 120 mg, Tmax (median)

compound: CC(C)(C)c1ccc(-c2nc3cc(O)ccc3[nH]2)cc1 [TQS-621]
Tmax (h): 1.5

* * *

experiment: Phase 1 single ascending dose (SAD) trial, plasma pharmacokinetics (Part 1); conditions: male, human, in vivo, po, 270 mg, Cmax, human plasma; Regimen H: 270 mg TQS-168 SDD oral suspension, fasted, single dose; geometric mean
quantity-name: Cmax (ng/mL)

structure-smiles-string: CC(C)(C)c1ccc(-c2nc3ccccc3[nH]2)cc1
quantity-name: Cmax
observed-measurement: 237

* * *

assay: Phase 1 multiple dose trial, plasma pharmacokinetics (Part 2); settings: male, human, in vivo, 90 mg, Cmax, human plasma; Regimen J: 90 mg TQS-168 SDD QD 7 days, fed; Day 7; geometric mean

structure-smiles-string: CC(C)(C)c1ccc(-c2nc3ccccc3[nH]2)cc1
unit-name: ng/mL
Cmax: 48.8

* * *

test: Plasma and brain concentrations after single oral dose 45 mg/kg in mice; assay type: in vivo; details: mouse, po; mice brain, TQS-168 45 mg/kg p.o., solution PEG 400/Kleptose/water
Measured half-life accompanies every entry in the list below.

molecule: CC(C)(C)c1ccc(-c2nc3cc(O)ccc3[nH]2)cc1 [TQS-621]
half-life, h: 4.85

molecule: CC(C)(C)c1ccc(-c2nc3ccccc3[nH]2)cc1 [TQS-168, 2-(4-tert-butylphenyl)-1H-benzimidazole]
half-life, h: 3.66

* * *

test: Tissue concentrations (plasma, brain, liver) after single oral dose 25 mg/kg in mice; assay type: in vivo; details: male, C57BL6/J, mouse, plasma, po, 25 mg/kg, 25 mg/kg p.o., 1440.0 minutes, individual animal, read-out: concentration in plasma

compound: CC(C)(C)c1ccc(-c2nc3ccccc3[nH]2)cc1 [TQS-168, 2-(4-tert-butylphenyl)-1H-benzimidazole]
concentration at 1440 min (ng/mL): 0

* * *

experiment: Tissue concentrations (plasma, brain, liver) after single oral dose 25 mg/kg in mice; type: in vivo; conditions: male, C57BL6/J, mouse, brain, po, 25 mg/kg, 25 mg/kg p.o., 240.0 minutes, average, read-out: concentration in brain
quantity-name: concentration at 240 min (ng/mL)

structure-smiles-string: CC(C)(C)c1ccc(-c2nc3ccccc3[nH]2)cc1
unit-name: ng/mL
observed-measurement: 185

* * *

assay: Phase 1 multiple dose trial, plasma pharmacokinetics (Part 2); conditions: male, human, in vivo, 120 mg, Tmax, human plasma; Regimen I: 120 mg TQS-168 SDD QD 7 days, fasted; Day 7; median
quantity-name: Tmax (min)

structure-smiles-string: CC(C)(C)c1ccc(-c2nc3ccccc3[nH]2)cc1
observed-measurement: 45

* * *

test: clinical; conditions: male, human, in vivo, po, 540 mg, T1/2

compound: CC(C)(C)c1ccc(-c2nc3cc(O)ccc3[nH]2)cc1 [TQS-621]
unit-name: h
half-life: 11.3

* * *

test: Phase 1 single ascending dose (SAD) trial, plasma pharmacokinetics (Part 1); details: male, human, in vivo, po, 270 mg, AUC(0-last), human plasma; Regimen H: 270 mg TQS-168 SDD oral suspension, fasted, single dose; geometric mean
quantity-name: AUC(0-t) (ng·h/mL)

structure-smiles-string: CC(C)(C)c1ccc(-c2nc3ccccc3[nH]2)cc1
quantity-name: AUC(0-t)
observed-measurement: 801

* * *

assay: Phase 1 multiple dose trial, plasma pharmacokinetics (Part 2); settings: male, human, in vivo, 300 mg, AUC(0-tau), Regimen K, 300 mg TQS-168 SDD QD, fed; Day 7; tau = 24 h; geometric mean

structure-smiles-string: CC(C)(C)c1ccc(-c2nc3ccccc3[nH]2)cc1
AUC (ng·h/mL): 2010

* * *

assay: Phase 1 single ascending dose (SAD) trial, plasma pharmacokinetics (Part 1); conditions: male, human, in vivo, po, 90 mg, Cmax, human plasma; Regimen F: 90 mg TQS-168 SDD oral suspension, fed (high fat breakfast), single dose; geometric mean
quantity-name: Cmax (ng/mL)

compound: CC(C)(C)c1ccc(-c2nc3ccccc3[nH]2)cc1 [TQS-168, 2-(4-tert-butylphenyl)-1H-benzimidazole]
quantity-name: Cmax
observed-measurement: 47.1

* * *

assay: Phase 1 multiple dose trial, plasma pharmacokinetics (Part 2); details: male, human, in vivo, 300 mg, Cmax, human plasma; Regimen K: 300 mg TQS-168 SDD QD 7 days, fed; Day 1
quantity-name: Cmax (nM)

molecule: CC(C)(C)c1ccc(-c2nc3ccccc3[nH]2)cc1 [TQS-168, 2-(4-tert-butylphenyl)-1H-benzimidazole]
observed-measurement: 910

* * *

experiment: Plasma and brain concentrations after single oral dose 45 mg/kg in mice; type: in vivo; details: mouse, po; mice brain, TQS-168 45 mg/kg p.o., solution PEG 400/Kleptose/water
Reported Tmax by item:
quantity-name: Tmax (h)

structure-smiles-string: CC(C)(C)c1ccc(-c2nc3cc(O)ccc3[nH]2)cc1
observed-measurement: 4
--
structure-smiles-string: CC(C)(C)c1ccc(-c2nc3ccccc3[nH]2)cc1
observed-measurement: 1

* * *

assay: Phase 1 multiple dose trial, plasma pharmacokinetics (Part 2); conditions: male, human, in vivo, 90 mg, AUC(0-tau), human plasma; Regimen J: 90 mg TQS-168 SDD QD 7 days, fed; Day 1; geometric mean

compound: CC(C)(C)c1ccc(-c2nc3ccccc3[nH]2)cc1 [TQS-168, 2-(4-tert-butylphenyl)-1H-benzimidazole]
unit-name: ng·h/mL
AUC: 223

* * *

experiment: Phase 1 multiple dose trial, plasma pharmacokinetics (Part 2); details: male, human, in vivo, 90 mg, Cmax, Regimen J, 90 mg TQS-168 SDD QD, fed; Day 1; plasma; geometric mean
quantity-name: Cmax (ng/mL)

compound: CC(C)(C)c1ccc(-c2nc3ccccc3[nH]2)cc1 [TQS-168, 2-(4-tert-butylphenyl)-1H-benzimidazole]
quantity-name: Cmax
unit-name: ng/mL
observed-measurement: 47.4

* * *

assay: clinical; settings: male, human, in vivo, po, 270 mg, AUC(0-24)

compound: CC(C)(C)c1ccc(-c2nc3cc(O)ccc3[nH]2)cc1 [TQS-621]
AUC(0-t) (ng·h/mL): 4250

* * *

test: Phase 1 multiple dose trial, plasma pharmacokinetics (Part 2); conditions: male, human, in vivo, 90 mg, maximum individual AUC(0-tau), human plasma; Regimen J 90 mg SDD fed; Day 1

structure-smiles-string: CC(C)(C)c1ccc(-c2nc3ccccc3[nH]2)cc1
unit-name: ng·h/mL
AUC: 299

* * *

test: Plasma and brain concentrations after single oral dose 45 mg/kg in mice; type: in vivo; conditions: mouse, po; mice plasma, TQS-168 45 mg/kg p.o., solution PEG 400/Kleptose/water
quantity-name: MRT inf (h)

structure-smiles-string: CC(C)(C)c1ccc(-c2nc3ccccc3[nH]2)cc1
observed-measurement: 3.35

* * *

assay: clinical; conditions: male, human, in vivo, po, 90 mg, AUC(0-inf)

compound: CC(C)(C)c1ccc(-c2nc3cc(O)ccc3[nH]2)cc1 [TQS-621]
AUC(0-inf) (ng·h/mL): 1200

* * *

assay: Phase 1 single ascending dose (SAD) trial, plasma pharmacokinetics (Part 1); details: male, human, in vivo, po, 90 mg, Tmax, human plasma; Regimen G: 90 mg TQS-168 SDD oral suspension, fasted, single dose; median
quantity-name: Tmax

compound: CC(C)(C)c1ccc(-c2nc3ccccc3[nH]2)cc1 [TQS-168, 2-(4-tert-butylphenyl)-1H-benzimidazole]
quantity-name: Tmax
observed-measurement: 30 min

* * *

assay: Phase 1 single ascending dose (SAD) trial, plasma pharmacokinetics (Part 1); details: male, human, in vivo, po, 60 mg, AUC(0-24), human plasma; Regimen A: 60 mg TQS-168 MC oral suspension, fasted, single dose; geometric mean

structure-smiles-string: CC(C)(C)c1ccc(-c2nc3ccccc3[nH]2)cc1
unit-name: ng·h/mL
AUC(0-t): 71.2

* * *

experiment: Phase 1 multiple dose trial, plasma pharmacokinetics (Part 2); conditions: male, human, in vivo, 120 mg, Cmax, human plasma; Regimen I: 120 mg TQS-168 SDD QD 7 days, fasted; Day 7

compound: CC(C)(C)c1ccc(-c2nc3ccccc3[nH]2)cc1 [TQS-168, 2-(4-tert-butylphenyl)-1H-benzimidazole]
Cmax: 1090 nM

* * *

assay: Plasma concentrations of TQS-168 and TQS-621 after single oral dose 50 mg/kg in mice, three formulations; assay type: in vivo; settings: male, C57BL/6, mouse, plasma, po, 50 mg/kg, mice, 50 mg/kg p.o., Group 1 (suspension, methylcellulose in PBS), 0.25 hr, mean; read-out: Calculated Concentration in plasma

compound: CC(C)(C)c1ccc(-c2nc3ccccc3[nH]2)cc1 [TQS-168, 2-(4-tert-butylphenyl)-1H-benzimidazole]
concentration at 0.25 h / ng/mL: 653
